Hey, just so you know, these numbers are from patent US20240392013A1.

Biological target: T1, recombinant human IL1RAP protein, extracellular domain His-tagged (Sino Biological, Cat #10121-H08H) (human, UniProt Q9NPH3 21-367)
T1 construct: extracellular domain; Bought protein; The Octet analyte is printed as huIL1RAP-His (Sino Biological, lot MB08MA1301) without a catalogue number; also called huIL1RAP-His; hIL1RAP; not shown: His tag
T1 sequence (looked up): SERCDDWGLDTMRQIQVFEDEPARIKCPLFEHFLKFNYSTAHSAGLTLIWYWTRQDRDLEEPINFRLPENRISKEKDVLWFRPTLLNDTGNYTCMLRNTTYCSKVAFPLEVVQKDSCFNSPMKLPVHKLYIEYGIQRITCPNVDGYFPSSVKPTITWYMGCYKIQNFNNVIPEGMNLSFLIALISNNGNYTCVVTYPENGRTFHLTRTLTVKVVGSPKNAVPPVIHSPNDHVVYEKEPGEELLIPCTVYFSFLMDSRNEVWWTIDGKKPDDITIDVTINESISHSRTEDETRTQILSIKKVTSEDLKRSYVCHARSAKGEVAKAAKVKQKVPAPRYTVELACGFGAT
Test: Octet BLI; mAb captured on anti-mouse IgG Fc sensor; huIL1RAP-His analyte
recordedMetric: kon (M⁻¹ s⁻¹)
Number only, in M⁻¹ s⁻¹; omit the unit.

Solved entries:
binder	assayResult
STLX2043 (antibody, V domains shown, Purified from hybridoma of immunized Alivamab mice; intact IgG; captured on anti-mouse IgG Fc sensors in Octet; kappa light chain; also called 74804_43F04A) VH: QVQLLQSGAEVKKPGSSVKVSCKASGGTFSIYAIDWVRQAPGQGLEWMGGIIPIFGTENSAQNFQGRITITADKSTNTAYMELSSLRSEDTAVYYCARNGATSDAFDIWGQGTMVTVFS VL: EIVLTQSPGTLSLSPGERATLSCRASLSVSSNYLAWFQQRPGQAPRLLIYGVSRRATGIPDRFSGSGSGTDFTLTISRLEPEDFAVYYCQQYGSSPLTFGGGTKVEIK	350000
STLX2051 (antibody, V domains shown, Purified from hybridoma of immunized Alivamab mice; intact IgG; captured on anti-mouse IgG Fc sensors in Octet; kappa light chain; also called 74804_51C10A) VH: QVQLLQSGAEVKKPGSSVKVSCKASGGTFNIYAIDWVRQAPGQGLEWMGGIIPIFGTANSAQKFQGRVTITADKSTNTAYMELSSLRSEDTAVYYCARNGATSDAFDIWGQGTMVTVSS VL: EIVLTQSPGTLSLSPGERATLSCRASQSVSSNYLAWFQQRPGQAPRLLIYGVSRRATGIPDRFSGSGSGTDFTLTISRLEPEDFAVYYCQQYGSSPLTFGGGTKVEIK	344000
STLX2018 (antibody, V domains shown, Purified from hybridoma of immunized Alivamab mice; intact IgG; captured on anti-mouse IgG Fc sensors in Octet; kappa light chain; also called 74804_18L05A) VH: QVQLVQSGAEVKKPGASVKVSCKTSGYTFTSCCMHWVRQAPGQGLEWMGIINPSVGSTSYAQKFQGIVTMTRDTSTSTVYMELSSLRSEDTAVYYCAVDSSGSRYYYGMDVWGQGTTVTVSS VL: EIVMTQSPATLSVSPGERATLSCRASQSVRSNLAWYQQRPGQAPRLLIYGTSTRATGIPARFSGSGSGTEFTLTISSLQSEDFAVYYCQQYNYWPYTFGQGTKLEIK	228000
STLX2027 (antibody, V domains shown, Purified from hybridoma of immunized Alivamab mice; intact IgG; captured on anti-mouse IgG Fc sensors in Octet; lambda light chain; also called 74804_27I24A) VH: EVQLVESGGGLVKPGGSLRLSCAASGFTFITYSMNWVRQAPGKGLEWVSSISSISSYIYYADSVKGRFTISRDNAKNSLYLQMDSLRAEDSAVYYCAREGIVGPTGYFDSWGQGTLVTVSS VL: QSVLTQPPSVSAAPGQKVTISCSGSSSNIGNHYVSWYQQLPGTAPKLLIYDNNKRPSGIPDRFSGSKSGTSATLGITGLQTGDEADYYCGTWDSRLSAYWVFGGGTKLTVL	350000
STLX2029 (antibody, V domains shown, Purified from hybridoma of immunized Alivamab mice; intact IgG; captured on anti-mouse IgG Fc sensors in Octet; kappa light chain; also called 74804_29D13A) VH: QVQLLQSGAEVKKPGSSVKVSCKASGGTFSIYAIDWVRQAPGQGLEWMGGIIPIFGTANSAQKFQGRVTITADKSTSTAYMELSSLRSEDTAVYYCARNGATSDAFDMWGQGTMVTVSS VL: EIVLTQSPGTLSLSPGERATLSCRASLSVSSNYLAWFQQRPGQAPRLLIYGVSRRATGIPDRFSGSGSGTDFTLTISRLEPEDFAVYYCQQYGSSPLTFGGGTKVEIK	336000
STLX2005 (antibody, V domains shown, Purified from hybridoma of immunized Alivamab mice; intact IgG; captured on anti-mouse IgG Fc sensors in Octet; kappa light chain; also called 74804_05B24A) VH: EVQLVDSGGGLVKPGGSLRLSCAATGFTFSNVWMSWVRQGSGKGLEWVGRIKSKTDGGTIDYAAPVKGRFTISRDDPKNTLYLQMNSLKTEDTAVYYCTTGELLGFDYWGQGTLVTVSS VL: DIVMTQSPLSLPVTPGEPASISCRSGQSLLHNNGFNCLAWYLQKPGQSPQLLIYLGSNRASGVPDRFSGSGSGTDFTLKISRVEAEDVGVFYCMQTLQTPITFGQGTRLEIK	294000
STLX2007 (antibody, V domains shown, Purified from hybridoma of immunized Alivamab mice; intact IgG; captured on anti-mouse IgG Fc sensors in Octet; kappa light chain; also called 74804_07K10A) VH: QVQLLQSGAEVKKPGSSVKVSCRASGGTFSIYAIDWVRQAPGQGLEWMGGIIPISGTENSAQNFQDRITITADKSTNTAYMELSSLRSEDTAVYYCARNGATSDAFDIWGQGTMVTVSS VL: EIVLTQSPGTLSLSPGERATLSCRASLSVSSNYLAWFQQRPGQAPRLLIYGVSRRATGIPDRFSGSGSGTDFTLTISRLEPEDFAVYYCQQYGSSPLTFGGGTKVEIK	392000
STLX2012 (antibody, V domains shown, Purified from hybridoma of immunized Alivamab mice; intact IgG; captured on anti-mouse IgG Fc sensors in Octet; kappa light chain; also called 74804_12A21B) VH: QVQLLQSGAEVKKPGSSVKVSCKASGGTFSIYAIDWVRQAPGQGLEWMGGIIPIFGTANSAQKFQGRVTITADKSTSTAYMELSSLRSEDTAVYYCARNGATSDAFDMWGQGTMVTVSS VL: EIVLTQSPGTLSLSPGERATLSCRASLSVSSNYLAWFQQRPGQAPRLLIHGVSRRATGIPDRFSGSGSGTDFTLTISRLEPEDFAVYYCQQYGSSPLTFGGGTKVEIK	308000

Which kon is listed for STLX2025 (antibody, V domains shown, Purified from hybridoma of immunized Alivamab mice; intact IgG; captured on anti-mouse IgG Fc sensors in Octet; kappa light chain; also called 74804_25H09A) VH: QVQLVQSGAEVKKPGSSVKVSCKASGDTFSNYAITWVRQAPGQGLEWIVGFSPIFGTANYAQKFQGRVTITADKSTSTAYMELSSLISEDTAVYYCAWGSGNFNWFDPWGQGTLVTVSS VL: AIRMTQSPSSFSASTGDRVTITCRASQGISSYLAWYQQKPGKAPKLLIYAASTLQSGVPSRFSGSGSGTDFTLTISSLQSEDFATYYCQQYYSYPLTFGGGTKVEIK ? 154000

Which kon is listed for STLX2045 (antibody, V domains shown, Purified from hybridoma of immunized Alivamab mice; intact IgG; captured on anti-mouse IgG Fc sensors in Octet; kappa light chain; also called 74804_45C18A) VH: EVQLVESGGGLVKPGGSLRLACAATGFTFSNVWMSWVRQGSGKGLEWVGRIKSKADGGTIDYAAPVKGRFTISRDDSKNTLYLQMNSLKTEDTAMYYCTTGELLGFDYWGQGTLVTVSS VL: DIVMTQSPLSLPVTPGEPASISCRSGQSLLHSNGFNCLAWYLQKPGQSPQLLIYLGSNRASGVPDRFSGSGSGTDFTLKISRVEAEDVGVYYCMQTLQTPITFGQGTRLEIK ? 422000
